biological target: UniProt:P25774
Sequence (P25774 whole entry): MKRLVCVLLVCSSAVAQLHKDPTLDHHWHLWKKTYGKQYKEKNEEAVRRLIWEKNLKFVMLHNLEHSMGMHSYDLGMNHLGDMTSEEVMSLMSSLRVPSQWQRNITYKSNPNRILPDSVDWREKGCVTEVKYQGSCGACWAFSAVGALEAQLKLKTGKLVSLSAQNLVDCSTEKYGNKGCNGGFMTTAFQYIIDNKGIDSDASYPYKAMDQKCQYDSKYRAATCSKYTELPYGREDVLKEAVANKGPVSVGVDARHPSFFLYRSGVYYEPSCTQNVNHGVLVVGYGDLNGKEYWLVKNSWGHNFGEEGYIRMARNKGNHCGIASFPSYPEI
pIC50: −log10 of the molar value.
measurement.name: pIC50

CN1CCC(C#N)(NC(=O)[C@@H](CC(=O)N2CCOCC2)CC2CCCCC2)CC1    6.60

[I] N#CC1(NC(=O)[C@@H](CC(=O)N2CCOCC2)CC2CCCCC2)CCN(Cc2ccccc2)CC1
[II] N#C[C@]1(NC(=O)[C@@H](CC(=O)N2CCOCC2)CC2CCCCC2)CCN(CC2CCCCC2)C1
Problem: Recorded pIC50 values differ for I and II ; which one is higher? When you have decided, please share the label of that item.
Result: II

[P] N#C[C@@]1(NC(=O)[C@@H](CC(=O)N2CCOCC2)CC2CCCCC2)CCNC1
[Q] N#C[C@H](COCc1ccc(Cl)cc1)NC(=O)[C@@H](CC(=O)N1CCOCC1)CC1CCCCC1
Problem: Between P and Q , which one shows the smaller pIC50 number? When you have decided, please share the label of that item.
Result: P
